Reference for the values: patent US20040018971A1

target: HLA-A*0202 (human); assay: competition for purified HLA vs 125I-labelled probe peptide, gel filtration; settings: remark: other sources report otherwise
pIC50: −log10 of the molar value.
Observable: pIC50

>>> print(df.to_string())
                          binder  test_value
0  VLLGVVFGV [Her2/neu.665.L2V9]        7.72
